- Test system: A498
- assayName: NCI tumour cell line growth inhibition, 48 h
Calls of active or inactive are those of the source. No stated cut-off is given here; in the data, active = GI50 up to about 1.1 µM and inactive = higher.
property: GI50

Example entries and their recorded answers appear below.
{"columns": ["compound", "property", "result"],
 "data": [
  ["CN(C)CCNC(=O)c1cccc2c(Nc3ccc(S(N)(=O)=O)cc3)c3ccccc3nc12", "GI50", "1.69 µM (inactive)"],
  ["CCn1c(=O)c2c3cc(O)ccc3oc2c2ccc(O)cc21", "GI50", "18.9 µM (inactive)"],
  ["COc1ccc(/C=C2\\CN(C)C/C(=C\\c3ccc(OC)cc3)C2=O)cc1", "GI50", "> 100 µM (inactive)"]
]}

I have 6 compounds here; please give me GI50 for each one.
1. NS(=O)(=O)c1nc(S(=O)(=O)O)c2[nH]cnc2n1
2. Cc1nnc2n1N=C(CC(=O)c1ccc(O)cc1O)CN2N
3. COc1ccc(N2C(=O)C3c4[nH]c5ccc(OC)cc5c4C4CCC(C(C)(C)C)CC4C3C2=O)cc1 (stereo unspecified)
4. O=C(C#Cc1ccccc1)C1=Cc2ccccc2OC1
5. CCOC(=O)CCC(NC(=O)Cc1ccc(Oc2nc3ccccc3nc2-c2ccccc2)cc1)C(=O)OCC (stereo unspecified)
6. Cc1ccc(I)cc1N=C=S

Output:
["> 100 µM (inactive)", "> 100 µM (inactive)", "19.6 µM (inactive)", "19.2 µM (inactive)", "> 100 µM (inactive)", "21.2 µM (inactive)"]

I have 4 compounds here; please give me GI50 for each one.
1. Cc1ccc(-c2n[nH]c(=O)n2/N=C\c2ccccc2)cc1
2. CC1=C[C@@H]2[C@@H](CC(CO)=C[C@H]3[C@@H]4C(C)(C)[C@]4(OCC(C)C)[C@H](OCC(C)C)[C@@H](C)[C@]23O)C1=O
3. O=S(=O)(c1ccccc1)n1c(C(O)c2ccncc2)cc2ccccc21 (stereo unspecified)
4. Cn1c(=O)c2c(nc3sc4ccccc4c(=O)n32)n(C)c1=O

Output:
1: 36.6 µM (inactive); 2: 1.08 µM (active); 3: 38.7 µM (inactive); 4: > 100 µM (inactive)

I have 2 compounds here; please give me GI50 for each one.
1. O=C1C=C(O)C(=Cc2c(O)cc(O)cc2O)C(O)=C1
2. CC(C(N)=O)N(C)C(=O)c1cnc2ccccc2c1 (stereo unspecified)

Output:
1. > 100 µM (inactive)
2. > 100 µM (inactive)

Values compiled from ChEMBL document CHEMBL1201862.
